# System: Fibroblast
# protocol: Multiplex assay against human fibroblast
# Type: toxicity, cell-based
# study_conditions: 24 h, 10 µM, compound concentration 10 uM, replicate 1
Population Membrane Permeable-Phenotype (%) values for the molecules below.
recorded_metric: Population Membrane Permeable-Phenotype (%)

1. CN1CCC(C(=O)c2cccc(NC(=O)c3c(F)cc(F)cc3F)n2)CC1 | 0
2. CN1CCN(c2ccc(Nc3c4ccccc4nc4ccccc34)cc2)CC1.Cl.Cl.O | 1
3. Cc1ccc(OCC(O)C(C)NC(C)C)c2c1CCC2.Cl (stereo not drawn) | 1
4. C=CCN1C[C@H](C(=O)N(CCCN(C)C)C(=O)NCC)C[C@@H]2c3cccc4[nH]cc(c34)C[C@H]21 | 0
5. CC(C)(C)c1ccc(CSc2cnn(C(C)(C)C)c(=O)c2Cl)cc1 | 1
6. COc1cc(OC2CCN(C(C)=O)CC2)ccc1C(=O)N1CCC(N2C(=O)OCc3ccccc32)CC1 | 1
7. Cc1cc(-c2ccc3c(c2)CC[C@H]3N2CC3(CCN(C(=O)Cc4cn5cc(C)sc5n4)CC3)C2)ncn1 | 0
8. COc1ccc2[nH]c(I)c(CCNC(C)=O)c2c1 | 1
9. CC(C)C[C@H](CO)Nc1nc(S[C@@H](C)c2ccccc2)nc2nc(N)sc12 | 0
10. C[C@H](NC(=O)CNC(=O)c1cccc(Cl)c1)c1ccccc1 | 1
11. COc1cc(Nc2ncc3c(n2)-c2ccc(Cl)cc2C(c2c(F)cccc2OC)=NC3)ccc1C(=O)O | 1
12. Cc1c(Cc2ccc3ccccc3n2)c2cc(F)ccc2n1CC(=O)O | 0
13. CN(C)C(=O)Cn1cc(-c2ccc(-c3nnc4ccccn34)cc2)cn1 | 2
